Source listed as patent US11643391B2.

Kindly state Remaining Percentage for each of the entries shown.
Assay: Stability in SGF without pepsin
Type: physicochemical
Details: Table 8, 60 min
Report the value in % with no unit label.

Identify Remaining Percentage associated with the molecule CC[C@H]1OC(=O)[C@H](C)[C@@H](O[C@H]2C[C@@](C)(OC)[C@@H](O)[C@H](C)O2)[C@H](C)[C@@H](O[C@@H]2O[C@H](C)C[C@H](N(C)C)[C@H]2O)[C@](C)(O)C[C@@H](C)C(=O)[C@H](C)[C@@H](O)[C@]1(C)O [Erythromycin, reference compound]
28.46

Identify Remaining Percentage associated with the molecule CCCCC(=O)Oc1cccc2ccn(CCN(C)C)c12
99.72

Identify Remaining Percentage associated with the molecule CC(OC(=O)C(C)C)OC(=O)n1cc(CCN(C)C)c2ccccc21 (stereo not shown)
104.95

Identify Remaining Percentage associated with the molecule CC(OC(=O)n1cc(CCN(C)C)c2ccccc21)OC(=O)C(C)(C)C (racemic)
103.35
